Target: T1, RanBP1 protein (full-length, recombinant) (UniProt P43487 1-201)
T1 construct: pMAL-c5x vector; that this removed MBP is inferred; source: E. coli BL21 (DE3), purified (MBPTrap HP, thrombin digestion, Superdex 75); not shown: MBP, N-terminal, cleaved
T1 sequence (P43487 whole entry): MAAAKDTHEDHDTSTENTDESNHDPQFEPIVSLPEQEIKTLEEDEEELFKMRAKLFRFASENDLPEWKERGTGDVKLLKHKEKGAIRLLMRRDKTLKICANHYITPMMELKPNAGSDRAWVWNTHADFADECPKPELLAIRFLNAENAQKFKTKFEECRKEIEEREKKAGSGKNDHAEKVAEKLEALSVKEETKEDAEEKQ
Test: SPR; ProteOn XPR36, One-shot Kinetics; concentration series of CD147^ICD injected over the immobilized ligand in TBS-T, 50 μL/min for 3 min, dissociation 12 min; constants by ProteOn Manager Software
Settings: both partners purified
attribute measured: Kd

>>> recorded_result("KRRKPEDVLDDDDAGSAPLKSSGQHQNDKGKNVRQRNSS (domain or fragment, UniProt P35613-2 231-269, looked up, CD147 (basigin), intracellular domain, residues 231-269; One preparation is described (pET21a, 'SUMO-His tag at the C-terminus', SUMO removed by Ulp1); The pull-down names the bait as His6-tagged; source: E. coli BL21 (DE3), purified (HisTrap HP, Ulp1 digestion, Superdex 75); not shown: SUMO, C-terminal, cleaved; His6, C-terminal, kept) [His6-tagged CD147^ICD (intracellular domain of CD147, residues 231-269)]")
"2.25 µM"
